Conditions: in isobutanol, 293.15 K
endpoint name: solubility (mole fraction)

>>> df
                                   compound               endpoint_name  observed
0  CN1CCOC(c2ccccc2)c2ccccc2C1.Cl (stereo unspecified)  solubility (mole fraction)  0.000955

###

Conditions: in n-butanol, 303.15 K
endpoint name: solubility (mole fraction)

>>> print(df.to_string())
                                   compound               endpoint_name  observed
0  CN1CCOC(c2ccccc2)c2ccccc2C1.Cl (stereo unspecified)  solubility (mole fraction)  0.000776

###

Conditions: in ethanol, 298.15 K
endpoint name: solubility (mole fraction)

In [3]: df
Out[3]:
                                   molecule               endpoint_name  observed
0  CN1CCOC(c2ccccc2)c2ccccc2C1.Cl (stereo unspecified)  solubility (mole fraction)   0.00337

###

Conditions: in ethanol, 308.15 K
endpoint name: solubility (mole fraction)

                                   compound               endpoint_name  observed
0  CN1CCOC(c2ccccc2)c2ccccc2C1.Cl (stereo unspecified)  solubility (mole fraction)   0.00473

###

Conditions: in n-propanol, 313.15 K
endpoint name: solubility (mole fraction)

                                   molecule               endpoint_name  observed
0  CN1CCOC(c2ccccc2)c2ccccc2C1.Cl (stereo unspecified)  solubility (mole fraction)    0.0017

###

Conditions: in isopropanol, 303.15 K
endpoint name: solubility (mole fraction)

>>> df
                                   molecule  observed
0  CN1CCOC(c2ccccc2)c2ccccc2C1.Cl (stereo unspecified)  0.000494

###

Settings: in methanol, 318.15 K
endpoint name: solubility (mole fraction)

>>> df
                                   compound               endpoint_name  observed
0  CN1CCOC(c2ccccc2)c2ccccc2C1.Cl (stereo unspecified)  solubility (mole fraction)    0.0128

###

Conditions: in isopropanol, 323.15 K
endpoint name: solubility (mole fraction)

>>> df
                                   compound  observed
0  CN1CCOC(c2ccccc2)c2ccccc2C1.Cl (stereo unspecified)   0.00114

###

Details: in n-propanol, 318.15 K
endpoint name: solubility (mole fraction)

>>> df
                                   molecule               endpoint_name  observed
0  CN1CCOC(c2ccccc2)c2ccccc2C1.Cl (stereo unspecified)  solubility (mole fraction)   0.00213

###

Conditions: in ethanol, 313.15 K
endpoint name: solubility (mole fraction)

                                   molecule  observed
0  CN1CCOC(c2ccccc2)c2ccccc2C1.Cl (stereo unspecified)   0.00559

###

Conditions: in methanol, 303.15 K
endpoint name: solubility (mole fraction)

>>> print(df.to_string())
                                   compound               endpoint_name  observed
0  CN1CCOC(c2ccccc2)c2ccccc2C1.Cl (stereo unspecified)  solubility (mole fraction)   0.00951

###

Settings: in n-butanol, 308.15 K
endpoint name: solubility (mole fraction)

In [3]: df
Out[3]:
                                   compound  observed
0  CN1CCOC(c2ccccc2)c2ccccc2C1.Cl (stereo unspecified)  0.000986

###

Conditions: in methanol, 288.15 K
endpoint name: solubility (mole fraction)

In [3]: df
Out[3]:
                                   compound               endpoint_name  observed
0  CN1CCOC(c2ccccc2)c2ccccc2C1.Cl (stereo unspecified)  solubility (mole fraction)   0.00692

###

Conditions: in n-propanol, 303.15 K
endpoint name: solubility (mole fraction)

>>> df
                                   compound               endpoint_name  observed
0  CN1CCOC(c2ccccc2)c2ccccc2C1.Cl (stereo unspecified)  solubility (mole fraction)   0.00106

###

Settings: in methanol, 278.15 K
endpoint name: solubility (mole fraction)

                                   compound  observed
0  CN1CCOC(c2ccccc2)c2ccccc2C1.Cl (stereo unspecified)   0.00566

###

Conditions: in isopropanol, 293.15 K
endpoint name: solubility (mole fraction)

>>> print(df.to_string())
                                   compound               endpoint_name  observed
0  CN1CCOC(c2ccccc2)c2ccccc2C1.Cl (stereo unspecified)  solubility (mole fraction)   0.00032

###

Settings: in isobutanol, 318.15 K
endpoint name: solubility (mole fraction)

>>> df
                                   compound               endpoint_name  observed
0  CN1CCOC(c2ccccc2)c2ccccc2C1.Cl (stereo unspecified)  solubility (mole fraction)    0.0026

###

Conditions: in isobutanol, 298.15 K
endpoint name: solubility (mole fraction)

In [3]: df
Out[3]:
                                   molecule  observed
0  CN1CCOC(c2ccccc2)c2ccccc2C1.Cl (stereo unspecified)   0.00116

###

Conditions: in acetone, 293.15 K
endpoint name: solubility (mole fraction)

>>> df
                                   compound               endpoint_name  observed
0  CN1CCOC(c2ccccc2)c2ccccc2C1.Cl (stereo unspecified)  solubility (mole fraction)  0.000151

###

Details: in n-propanol, 298.15 K
endpoint name: solubility (mole fraction)

>>> df
                                   compound  observed
0  CN1CCOC(c2ccccc2)c2ccccc2C1.Cl (stereo unspecified)  0.000836

###

Details: in isobutanol, 278.15 K
endpoint name: solubility (mole fraction)

>>> print(df.to_string())
                                   molecule  observed
0  CN1CCOC(c2ccccc2)c2ccccc2C1.Cl (stereo unspecified)  0.000524

###

Conditions: in ethanol, 323.15 K
endpoint name: solubility (mole fraction)

In [3]: df
Out[3]:
                                   compound  observed
0  CN1CCOC(c2ccccc2)c2ccccc2C1.Cl (stereo unspecified)   0.00795

###

Settings: in methanol, 273.15 K
endpoint name: solubility (mole fraction)

In [3]: df
Out[3]:
                                   compound  observed
0  CN1CCOC(c2ccccc2)c2ccccc2C1.Cl (stereo unspecified)   0.00515

###

Conditions: in water, 318.15 K
endpoint name: solubility (mole fraction)

>>> df
                                   compound               endpoint_name  observed
0  CN1CCOC(c2ccccc2)c2ccccc2C1.Cl (stereo unspecified)  solubility (mole fraction)   0.00369

###

Settings: in acetone, 288.15 K
endpoint name: solubility (mole fraction)

                                   compound  observed
0  CN1CCOC(c2ccccc2)c2ccccc2C1.Cl (stereo unspecified)  0.000128

###

Details: in methanol, 283.15 K
endpoint name: solubility (mole fraction)

In [3]: df
Out[3]:
                                   molecule               endpoint_name  observed
0  CN1CCOC(c2ccccc2)c2ccccc2C1.Cl (stereo unspecified)  solubility (mole fraction)   0.00632

###

Conditions: in ethanol, 283.15 K
endpoint name: solubility (mole fraction)

                                   compound               endpoint_name  observed
0  CN1CCOC(c2ccccc2)c2ccccc2C1.Cl (stereo unspecified)  solubility (mole fraction)   0.00198

###

Details: in n-butanol, 318.15 K
endpoint name: solubility (mole fraction)

>>> df
                                   compound  observed
0  CN1CCOC(c2ccccc2)c2ccccc2C1.Cl (stereo unspecified)   0.00159

###

Conditions: in water, 308.15 K
endpoint name: solubility (mole fraction)

                                   compound               endpoint_name  observed
0  CN1CCOC(c2ccccc2)c2ccccc2C1.Cl (stereo unspecified)  solubility (mole fraction)   0.00273

###

Conditions: in acetone, 308.15 K
endpoint name: solubility (mole fraction)

>>> print(df.to_string())
                                   molecule  observed
0  CN1CCOC(c2ccccc2)c2ccccc2C1.Cl (stereo unspecified)  0.000265
